- System: Brugia pahangi adult female
- EXPERIMENT NOTES: IC50 motility inhibition on day 3
- STATED CONDITIONS: 3 days
Doc: threshold 200 nM (exclusive). Items with IC50 motility inhibition on day 3 beneath it return TRUE; others return FALSE.

Please determine if O=c1[nH]c2ccccc2n1C1CCN(CCCC(c2ccc(F)cc2)c2ccc(F)cc2)CC1 [Pimozide] is below 200 nM in terms of IC50 motility inhibition on day 3.
FALSE

Please determine if Oc1cccc2cccnc12 [oxyquinoline] is below 200 nM in terms of IC50 motility inhibition on day 3.
FALSE

Please determine if N[C@@H]1C[C@H]1c1ccccc1.N[C@H]1C[C@@H]1c1ccccc1 [tranylcypromine] is below 200 nM in terms of IC50 motility inhibition on day 3.
FALSE

Please determine if C[CH2][Hg][S]c1ccccc1C(=O)[O-].[Na+] [thimerosal] is below 200 nM in terms of IC50 motility inhibition on day 3.
FALSE

Please determine if CC(=O)[O][Hg][c]1ccccc1 [phenylmercuric acetate] is below 200 nM in terms of IC50 motility inhibition on day 3.
TRUE

Please determine if [O-][n+]1ccccc1[S-].[O-][n+]1ccccc1[S-].[Zn+2] [pyrithione zinc] is below 200 nM in terms of IC50 motility inhibition on day 3.
TRUE
